Entry source: PubChem BioAssay AID179

# Test system: CEM cells HIV-1 protection, formazan growth assay
# measurement protocol: NCI AIDS Antiviral Assay
# condition notes: measured here: growth of uninfected CEM cells
metric: IC50 (µM)
Record the value in µM, omitting the unit from your answer.

Query :: Lab request: please report IC50 under test system CEM cells HIV-1 protection, formazan growth assay for O=[N+]1ON=C(c2ccccc2)C1=C1C(c2c(-c3ccccc3)no[n+]2[O-])=NON1[O-]
Result :: 6.03

Query :: Lab note: need IC50 for O=C(Cc1ccc(OCc2cccc(Cl)c2)cc1)NO on CEM cells HIV-1 protection, formazan growth assay, anyone have it?
Result :: 29.5

Query :: Lab request: please report IC50 under test system CEM cells HIV-1 protection, formazan growth assay for O=[N+]([O-])/C(Cl)=C/C(=C1/Nc2ccccc2O1)[N+](=O)[O-]
Result :: 30.2

Query :: # query: IC50 | item CC(=O)CC(=O)/C=C/c1cccs1 | system: CEM cells HIV-1 protection, formazan growth assay
Result :: 178

* * *

# System: CEM cells HIV-1 protection, formazan growth assay
# measurement protocol: NCI AIDS Antiviral Assay
pEC50: −log10 of the molar value. Where a SMILES comes first, the peptide text is derived from it. Bridges are numbered along the chain shown (N, C = ends). Roman numbers before positions name the chains, in order. The star is where a group is joined. Cbz = O=C(OCc1ccccc1)*
metric: pEC50

Example cases with answers are listed next.
1) CC(C)C(NC(=O)C(CSSCC(NC(=O)OCc1ccccc1)C(=O)NC(C(=O)O)C(C)C)NC(=O)OCc1ccccc1)C(=O)O (stereo not drawn) (I: Cbz-Cys-Val-OH / II: Cbz-Cys-Val-OH; disulfide I:1-II:1; configuration not given here) : < 3.70
2) N/C(=N\NS(=O)(=O)c1ccccc1)Oc1ccc(Cl)cc1 : < 3.40
3) CC1(Br)C(=O)NC(=O)N(C2C=CC(CO)O2)C1N=[N+]=[N-] (centres undefined) : 6.14

The record that follows has no pEC50 shown yet.
Query :: Tell me reported pEC50 for CC(=O)N1C(Nc2ccccn2)CCN1c1ccccc1 (centres undefined) , tested with CEM cells HIV-1 protection, formazan growth assay.
Result :: < 3.70

* * *

# Test system: CEM cells HIV-1 protection, formazan growth assay
# measurement protocol: NCI AIDS Antiviral Assay
# condition notes: measured here: growth of uninfected CEM cells
Some compounds, each annotated with its measured IC50.

Examples from the recorded data:
1) Cc1ccc(NC(=O)c2cc(S(=O)(=O)N3CCNNC3=O)c(S)cc2Cl)cc1 : 195 µM
2) Cn1c(=O)c2c(ncn2CCNC(CO)C(O)c2ccc([N+](=O)[O-])cc2)n(C)c1=O (configuration not stated) : > 200 µM

Query :: GET /values?readout=IC50&item= C=CC1C(OC2OC(CO)C(O)C(O)C2O)OC=C(C(=O)OC)C1CC=O (configuration not stated)
Result :: > 646 µM

Query :: // returns reported IC50 for input NC(=O)C(=CNC(=S)Nc1cccc(C(F)(F)F)c1)C(N)=O
Result :: > 200 µM

Query :: # get_value(readout='IC50', item= CC(C)(C)OC(=O)NCCc1ccc(N)cc1 )
Result :: 158 µM

Query :: Fill in the blank: the reported IC50 of COc1ccc2nc3cc(Cl)ccc3c(Sc3ccc([N+](=O)[O-])cc3C)c2c1 is ____.
Result :: > 12.6 µM

Query :: Any idea what its IC50 is? The compound is CN[C@@H]1[C@H](O)[C@H](NC)[C@H]2O[C@@]3(O)C(=O)C[C@@H](C)O[C@H]3O[C@@H]2[C@H]1O
Result :: > 200 µM

Query :: So what's the measured IC50 for this one? CC1=C2N3C[C@@H](n4c(=O)n(C)c(=O)n43)C23CCC1n1c(=O)n(C)c(=O)n13
Result :: > 72.4 µM
